Sourced from ChEMBL document CHEMBL5724914

# particulars: human gut metagenome, 24 h, 2 µM; note: call rule not given here
readout.kind: Bacterial Biotransformation

Solved entries (count: 5):
Challenge: // Bacterial Biotransformation lookup, key: COc1c(C)c2c(c(O)c1C/C=C(\C)CCC(=O)OCCN1CCOCC1)C(=O)OC2 [MYCOPHENOLATE MOFETIL]
Response given: Compound metabolized

Challenge: I would be grateful if you could share the reported Bacterial Biotransformation for CN1CCN(C2=Nc3cc(Cl)ccc3Nc3ccccc32)CC1 .
Response given: Compound metabolized

Challenge: Can you share its Bacterial Biotransformation? I mean this compound: CCN(CC)CCNC(=O)c1cc(Cl)c(N)cc1OC [METOCLOPRAMIDE]
Response given: Compound NOT metabolized

Challenge: I would be grateful if you could share the reported Bacterial Biotransformation for O=C(O)CCc1nc(-c2ccccc2)c(-c2ccccc2)o1 .
Response given: Compound metabolized

Challenge: Record request: Bacterial Biotransformation value, item Cc1ccnc2c1NC(=O)c1cccnc1N2C1CC1
Response given: Compound NOT metabolized

More entries:
Challenge: I'd like to know its Bacterial Biotransformation. The compound in question is CN1C(C(=O)Nc2ccccn2)=C(O)c2sccc2S1(=O)=O
Response given: Compound NOT metabolized

Challenge: Request the reported Bacterial Biotransformation associated with COc1cc2nc(N(C)CCCNC(=O)C3CCCO3)nc(N)c2cc1OC (centres undefined)
Response given: Compound metabolized

Challenge: Which Bacterial Biotransformation is listed for CS(=O)(=O)O.OC(CCN1CCCCC1)(c1ccccc1)c1ccccc1 [PRIDINOL METHANESULFONATE] ?
Response given: Compound NOT metabolized

Challenge: What value of Bacterial Biotransformation has been reported for the following compound? CNC(=C[N+](=O)[O-])NCCSCc1csc(CN(C)C)n1
Response given: Compound NOT metabolized

Challenge: Item COC1=CC(=O)C[C@@H](C)[C@]12Oc1c(Cl)c(OC)cc(OC)c1C2=O has what recorded Bacterial Biotransformation?
Response given: Compound metabolized

Challenge: Given the compound CCc1nn(CCCN2CCN(c3cccc(Cl)c3)CC2)c(=O)n1CCOc1ccccc1 , what is its reported Bacterial Biotransformation?
Response given: Compound NOT metabolized

Challenge: Report Bacterial Biotransformation for CN(C(=O)CN(CCO)CC(=O)N(C)C(C)(C)Cc1ccccc1)C(C)(C)Cc1ccccc1 please.
Response given: Compound metabolized

###

# particulars: human gut metagenome, 24 h, 2 µM
readout.kind: Bacterial Biotransformation

Please review the entries below; each comes with its answer.
Challenge: Look at this molecule and give its reported Bacterial Biotransformation. CCCCC1=NC2(CCCC2)C(=O)N1Cc1ccc(-c2ccccc2-c2nnn[nH]2)cc1 [IRBESARTAN]
Response given: Compound metabolized

Challenge: What value of Bacterial Biotransformation has been reported for the following molecule? CN1CCc2cccc3c2[C@H]1Cc1ccc(O)c(O)c1-3 [APOMORPHINE]
Response given: Compound NOT metabolized

Challenge: I would be grateful if you could share the reported Bacterial Biotransformation for Cc1ccc(S(=O)(=O)NC(=O)NN2CCCCCC2)cc1 [TOLAZAMIDE] .
Response given: Compound metabolized

Challenge: Fill in the blank: the reported Bacterial Biotransformation of O=C1NCC2(CCN(CCc3ccccc3)CC2)O1 [FENSPIRIDE] is ____.
Response given: Compound NOT metabolized

Challenge: Recorded Bacterial Biotransformation of CCOC(=O)[C@H](CCc1ccccc1)N[C@@H](C)C(=O)N1[C@H](C(=O)O)C[C@@H]2CCC[C@@H]21 , please.
Response given: Compound metabolized

Challenge: Data request, read-out Bacterial Biotransformation, for CN1C(C(=O)Nc2ccccn2)=C(O)c2sccc2S1(=O)=O [TENOXICAM]
Response given: Compound NOT metabolized

Challenge: What value of Bacterial Biotransformation has been reported for the following molecule? CN1CCN(C(=O)O[C@H]2c3nccnc3C(=O)N2c2ccc(Cl)cn2)CC1 [ESZOPICLONE]
Response given: Compound NOT metabolized

Challenge: Item CCN(CC)CCNC(C(=O)OCCC(C)C)c1ccccc1.Cl.Cl (stereo unspecified) has what recorded Bacterial Biotransformation?
Response given: Compound metabolized

Challenge: # get_value(readout='Bacterial Biotransformation', item= CO[C@]12C[C@@H](COC(=O)c3cncc(Br)c3)CN(C)[C@@H]1Cc1cn(C)c3cccc2c13 [NICERGOLINE] )
Response given: Compound metabolized

Challenge: Can you look up the measured Bacterial Biotransformation of CNS(=O)(=O)Cc1ccc2[nH]cc(CCN(C)C)c2c1.O=C(O)CCC(=O)O [SUMATRIPTAN SUCCINATE] for me?
Response given: Compound metabolized

More entries:
Challenge: Bench note: what Bacterial Biotransformation did COc1cc2nc(N3CCN(C(=O)c4ccco4)CC3)nc(N)c2cc1OC [PRAZOSIN] show?
Response given: Compound metabolized
